system: SNB-19; assay: NCI tumour cell line growth inhibition, 48 h
Calls of active or inactive are those of the source. Cut-off read from the data, not from the text of the source: active = GI50 up to about 1.1 µM and inactive = higher.
Possible outcomes: true (1) (active), false (0) (inactive)

{"columns": ["molecule", "class assignment"],
 "data": [
  ["COc1ccc(OC)c2c3c(ccc12)C(c1ccccc1)OC3=O (stereo not drawn)", "false (0)"],
  ["O=C(/N=N/c1ccc([N+](=O)[O-])cc1)NNc1ccc([N+](=O)[O-])cc1", "false (0)"],
  ["CCC(C)(C)/C(CC(O)(C(F)(F)F)C(F)(F)F)=N\\O", "false (0)"],
  ["CCCC(=O)NC(NC1CCCCC1)(C(=O)OCC)C(F)(F)F (stereo not drawn)", "false (0)"],
  ["CO[C@H]1C[C@H](O[C@H]2CC[C@]3(C=O)[C@H]4CC[C@]5(C)[C@@H](C6=CC(=O)OC6)CC[C@]5(O)[C@@H]4CC[C@]3(O)C2)O[C@H](C)[C@H]1O[C@@H]1O[C@H](CO[C@@H]2O[C@H](CO)[C@@H](O)[C@H](O)[C@H]2O)[C@@H](O)[C@H](O)[C@H]1O", "true (1)"],
  ["CC1S/C(=N\\N=C2/C(=O)Nc3ccc(Br)cc32)N(C2CCCCC2)C1=O (stereo not drawn)", "false (0)"],
  ["Cc1ccc(C)c2sc3cc(=O)ccc-3nc12", "false (0)"],
  ["CCC(=O)N/N=C(\\C=C\\c1cccc(O)c1)c1sc(Nc2ccc(C)cc2[N+](=O)[O-])nc1C", "false (0)"]
]}
